Please respond with reported pIC50 for every item in the list.
- Measured On: Human immunodeficiency virus type 1 integrase (Human immunodeficiency virus 1)
- Assay Method Text: Inhibitory concentration against purified recombinant integrase by strand transfer 3D search
pIC50 here: minus log base 10 of the concentration, concentration in moles per litre.

[in] Reported pIC50, compound O=C(NNC(=O)c1ccccc1O)c1ccccc1O.O=C(NNCC(O)COc1ccccc1)c1ccccc1O (configuration not stated) : ____
[out] 6.10

[in] Reported pIC50, compound O=C(NCO)NCOCn1c(=O)n(CO)c(=O)n(CO)c1=O : ____
[out] 5.30

* * *

Please respond with reported pIC50 for every item in the list.
- Measured On: Human immunodeficiency virus type 1 integrase (Human immunodeficiency virus 1, UniProt Q7ZJM1)
- Sequence (Q7ZJM1 whole entry): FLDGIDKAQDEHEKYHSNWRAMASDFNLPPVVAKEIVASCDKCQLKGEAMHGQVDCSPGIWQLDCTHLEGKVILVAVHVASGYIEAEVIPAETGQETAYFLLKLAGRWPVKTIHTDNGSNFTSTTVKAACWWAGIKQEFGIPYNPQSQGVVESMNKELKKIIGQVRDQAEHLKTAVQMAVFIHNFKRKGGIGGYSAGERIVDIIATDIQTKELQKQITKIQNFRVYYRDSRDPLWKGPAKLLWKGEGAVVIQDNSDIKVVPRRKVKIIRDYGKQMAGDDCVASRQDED
- Assay Method Text: Inhibitory concentration against purified recombinant integrase by 3'-processing in vitro assay (experiment 1)
pIC50 here: minus log base 10 of the concentration, concentration in moles per litre.

[in] Reported pIC50, molecule COc1cc(N)ccc1C(=O)NC(CCC(=O)O)C(=O)O (configuration not stated) : ____
[out] 3.64

[in] Reported pIC50, molecule C[C@H]1C(=O)c2c(cc(O)c(C3OC(CO)C(O)C(O)C3O)c2O)OC1c1ccc(O)c(O)c1 (some centres not stated) : ____
[out] 3.75

[in] Reported pIC50, molecule O=C(CC(O)(c1ccccc1)c1ccc(Cl)cc1)NC(=O)c1ccccc1O (configuration not stated) : ____
[out] 3.74

[in] Reported pIC50, molecule CCC/C=C/C=C/[C@@H]1C[C@@H](O)[C@@H](O)C(=O)[C@H]1CO : ____
[out] 3.46

[in] Reported pIC50, molecule COc1cc2oc(-c3ccc(O)cc3)cc(=O)c2c(O)c1C1OC(CO)C(O)C(O)C1O (configuration not stated) : ____
[out] 3.65

[in] Reported pIC50, molecule O=C(NO)/C(CC(=O)c1ccc(O)cc1O)=N\O : ____
[out] 4.52

[in] Reported pIC50, molecule O=C(CCCCC(=O)c1ccc(O)cc1O)OCCO : ____
[out] 3.53

* * *

- Measured On: Human immunodeficiency virus type 1 integrase (Human immunodeficiency virus 1)
- Assay Method Text: Inhibitory concentration against purified recombinant integrase by strand transfer in vitro assay (experiment 1)
Please respond with reported log10 IC50 for every item in the list.
Lab note - IC50 converted to log10 from values in µM.

[in] Reported log10 IC50, compound O=C(CC(O)(c1ccccc1)c1ccc(Cl)cc1)NC(=O)c1ccccc1O (configuration not stated) : ____
[out] 2.00

[in] Reported log10 IC50, compound C[C@H]1C(=O)c2c(cc(O)c(C3OC(CO)C(O)C(O)C3O)c2O)OC1c1ccc(O)c(O)c1 (some centres not stated) : ____
[out] 2.01

[in] Reported log10 IC50, compound O=C(NO)/C(CC(=O)c1ccc(O)cc1O)=N\O : ____
[out] 1.22

[in] Reported log10 IC50, compound COc1cc2oc(-c3ccc(O)cc3)cc(=O)c2c(O)c1C1OC(CO)C(O)C(O)C1O (configuration not stated) : ____
[out] 2.13

[in] Reported log10 IC50, compound COc1cc(N)ccc1C(=O)NC(CCC(=O)O)C(=O)O (configuration not stated) : ____
[out] 2.31

[in] Reported log10 IC50, compound O=C(CCCCC(=O)c1ccc(O)cc1O)OCCO : ____
[out] 2.27

[in] Reported log10 IC50, compound CCC/C=C/C=C/[C@@H]1C[C@@H](O)[C@@H](O)C(=O)[C@H]1CO : ____
[out] 2.43
